# Tested on: P. falciparum
# ASSAY NOTES: Inhibition of cell proliferation, 3H-hypoxanthine uptake in P. falciparum-infected erythrocytes
# Assay type: cell-based
# EXPERIMENTAL CONDITIONS: Plasmodium falciparum, Erythrocyte, Table 1; read-out: EC50 P. falciparum
PROPERTY: pEC50
Remember, pEC50 is on a log scale: it is -log10 of the molar concentration.

Reading of pEC50 for "Cc1cc(Nc2ccc3cc4ccccc4cc3c2)n2nc(C)nc2n1" with P. falciparum: 6.64

###

# ASSAY TARGET: PbDHODH (Plasmodium berghei, UniProt A0A509AEH5)
# Sequence (A0A509AEH5 entry or part of it): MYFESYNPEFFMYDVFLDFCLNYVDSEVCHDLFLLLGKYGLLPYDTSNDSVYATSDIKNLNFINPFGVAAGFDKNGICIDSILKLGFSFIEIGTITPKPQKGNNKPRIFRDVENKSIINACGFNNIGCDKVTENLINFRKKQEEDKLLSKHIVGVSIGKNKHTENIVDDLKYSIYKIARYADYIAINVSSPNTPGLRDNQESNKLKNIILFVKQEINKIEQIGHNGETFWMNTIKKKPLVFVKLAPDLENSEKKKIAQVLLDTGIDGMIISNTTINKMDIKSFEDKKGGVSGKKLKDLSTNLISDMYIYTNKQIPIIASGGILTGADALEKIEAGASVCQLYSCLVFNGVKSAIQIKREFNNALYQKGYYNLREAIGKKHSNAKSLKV
# ASSAY NOTES: DHODH enzyme inhibition assay, PbDHODH
# Format: biochemical, P. berghei
# EXPERIMENTAL CONDITIONS: Table 4, IC50 class; read-out: PbDHODH
Attribute: IC50

[[record]]
compound = "Cc1cc(Nc2cccc(C(F)(F)F)c2)n2ncnc2n1"
property = "IC50"
measurement = "> 10 µM"

[[record]]
compound = "Cc1cc(Nc2ccc(Cl)cc2)n2ncnc2n1"
property = "IC50"
measurement = "2 to 10 µM"

[[record]]
compound = "Cc1cc(Nc2ccc(Cc3ccccc3)cc2)n2ncnc2n1"
property = "IC50"
measurement = "> 10 µM"

[[record]]
compound = "Cc1cc(Nc2cc(F)cc(F)c2)n2ncnc2n1"
property = "IC50"
measurement = "> 10 µM"

[[record]]
compound = "Cc1cc(Nc2ccc(F)c(F)c2F)n2ncnc2n1"
property = "IC50"
measurement = "> 10 µM"


So for Cc1cc(Nc2ccc(F)c(C)c2)n2ncnc2n1 [drawing 39] , the logged IC50 turned out to be > 10 µM

###

# ASSAY TARGET: PfDHODH (Plasmodium falciparum)
# ASSAY NOTES: biochemical
# EXPERIMENTAL CONDITIONS: Table 5; read-out: PfDHODH IC50
PROPERTY: pIC50
Remember, pIC50 is on a log scale: it is -log10 of the molar concentration.

Check out these entries, answers already filled in.
[[record]]
compound = "COc1ccc(Nc2cc(C)nc3nc(C)nn23)cc1Cl [drawing 99]"
property = "pIC50"
measurement = 6.49

[[record]]
compound = "Cc1cc(Nc2ccc(C)c(F)c2)n2nc(C)nc2n1"
property = "pIC50"
measurement = 6.20

[[record]]
compound = "CCc1nc2nc(C)cc(Nc3ccc(Br)cc3F)n2n1"
property = "pIC50"
measurement = 6.40

[[record]]
compound = "Cc1cc(Nc2ccc(S(F)(F)(F)(F)F)cc2)n2ncnc2n1"
property = "pIC50"
measurement = 6.93

[[record]]
compound = "CCc1nc2nc(C)cc(Nc3ccc(C)c(F)c3)n2n1"
property = "pIC50"
measurement = 7.18


So for "Cc1cc(Nc2ccc3c(c2)CCC3)n2ncnc2n1" , the logged pIC50 turned out to be 6.94

So for "Cc1cc(Nc2ccc(C)c(C)c2)n2nc(C)nc2n1" , the logged pIC50 turned out to be 7.09

So for "CCCc1nc2nc(C)cc(Nc3ccc(C)c(Cl)c3)n2n1" , the logged pIC50 turned out to be 6.88

###

# ASSAY TARGET: PfDHODH (Plasmodium falciparum, UniProt Q08210)
# Sequence (Q08210 24-569): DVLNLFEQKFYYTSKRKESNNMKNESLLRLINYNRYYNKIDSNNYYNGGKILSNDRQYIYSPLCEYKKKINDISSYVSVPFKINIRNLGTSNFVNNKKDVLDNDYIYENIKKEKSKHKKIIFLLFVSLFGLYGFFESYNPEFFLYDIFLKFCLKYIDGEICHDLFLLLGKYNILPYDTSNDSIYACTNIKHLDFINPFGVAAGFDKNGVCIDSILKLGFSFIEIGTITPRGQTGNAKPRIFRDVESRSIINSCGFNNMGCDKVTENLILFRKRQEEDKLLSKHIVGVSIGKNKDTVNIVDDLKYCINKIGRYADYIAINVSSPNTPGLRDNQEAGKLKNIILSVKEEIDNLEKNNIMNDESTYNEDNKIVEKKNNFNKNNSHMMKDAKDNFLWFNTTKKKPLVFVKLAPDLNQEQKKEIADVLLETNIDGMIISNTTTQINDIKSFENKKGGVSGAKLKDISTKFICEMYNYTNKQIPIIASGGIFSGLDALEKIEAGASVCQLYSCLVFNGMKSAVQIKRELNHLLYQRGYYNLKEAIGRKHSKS
# ASSAY NOTES: biochemical
# EXPERIMENTAL CONDITIONS: Table 5; read-out: PfDHODH IC50
// classify: if (IC50 < 300 nM) condition met else condition not met

[[record]]
smiles_entry = "CCc1nc2nc(C)cc(Nc3ccc(I)cc3)n2n1"
label_value = "condition met"


With those in mind, consider the next compound.
## Input Input "CCc1cccc(Nc2cc(C)nc3ncnn23)c1" ; condition: IC50 strictly below 300 nM. Does it hold?
## Output condition not met

###

# ASSAY NOTES: Pharmacokinetic analysis after single oral dose in mice
# Type: in vivo
# EXPERIMENTAL CONDITIONS: male, Swiss outbred, mouse, plasma; mice, oral, 50 mg/kg; read-out: apparent half-life
PROPERTY: half-life (h)
Provide only the numeric value, understood in h.

So for Cc1cc(Nc2ccc(C(F)(F)F)cc2)n2ncnc2n1 [drawing 22] , the logged half-life turned out to be 2.95

###

# ASSAY TARGET: PfDHODH (Plasmodium falciparum, UniProt Q08210)
# ASSAY NOTES: biochemical
# EXPERIMENTAL CONDITIONS: PfDHODH, Table 4, IC50 class
pIC50: −log10 of the molar value.
Attribute: pIC50

[[record]]
molecule = "Cc1cc(Nc2cccc(Cl)c2)n2ncnc2n1 [drawing 35]"
measurement = "> 5.70"


Then this molecule:
Reading of pIC50 for "Cc1cc(Nc2ccc(C#N)c(C(F)(F)F)c2)n2ncnc2n1" with PfDHODH (Plasmodium falciparum, UniProt Q08210): 5.00 to 5.70

###

Attribute: IC50
# ASSAY TARGET: UniProtKB A0A509AEH5
# ASSAY NOTES: DHODH enzyme inhibition assay, PbDHODH
# Format: biochemical, P. berghei
# EXPERIMENTAL CONDITIONS: PbDHODH, Table 4, IC50 class
# Description: Briefly, the assay solution contained 100 mM HEPES, pH 8.0, 150 mM NaCl, 10% glycerol, 0.1% Triton X-100, 20 micro molar COQD (coenzyme QD), 200 micro molar L-dihydroorotate, and 120 micro molar DCIP. Reactions are initiated by addition of enzyme to a final concentration in the range of about […] to about 50 nM while maintaining the temperature of a circulating water bath at 25° C. […]

[[record]]
smiles_entry = "Cc1cc(Nc2ccc(N(C)C)cc2)n2ncnc2n1"
assay_target = "UniProtKB A0A509AEH5"
property = "IC50"
measurement = "> 10 µM"

[[record]]
smiles_entry = "CCCc1ccc(Nc2cc(C)nc3ncnn23)cc1"
assay_target = "UniProtKB A0A509AEH5"
property = "IC50"
measurement = "2 to 10 µM"

[[record]]
smiles_entry = "Cc1cc(Nc2ccccc2C(F)(F)F)n2ncnc2n1"
assay_target = "UniProtKB A0A509AEH5"
property = "IC50"
measurement = "> 10 µM"


Then this compound:
Reading of IC50 for "Cc1cc(Nc2ccccc2F)n2ncnc2n1" with UniProtKB A0A509AEH5: > 10 µM

###

# ASSAY TARGET: hDHODH (Homo sapiens, UniProt Q02127)
# Sequence (Q02127 whole entry): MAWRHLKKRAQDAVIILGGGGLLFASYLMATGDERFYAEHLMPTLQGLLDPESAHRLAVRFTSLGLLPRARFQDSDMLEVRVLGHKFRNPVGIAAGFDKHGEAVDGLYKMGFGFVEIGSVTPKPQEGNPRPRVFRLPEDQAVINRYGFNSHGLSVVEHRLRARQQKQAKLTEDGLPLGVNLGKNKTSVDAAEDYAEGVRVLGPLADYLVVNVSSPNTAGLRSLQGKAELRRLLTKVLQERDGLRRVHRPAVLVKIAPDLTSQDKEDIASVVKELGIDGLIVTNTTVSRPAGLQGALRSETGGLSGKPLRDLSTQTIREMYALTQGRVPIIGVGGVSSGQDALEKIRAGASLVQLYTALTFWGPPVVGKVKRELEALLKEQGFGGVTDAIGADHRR
# ASSAY NOTES: DHODH enzyme inhibition assay, hDHODH
# Assay type: biochemical
# EXPERIMENTAL CONDITIONS: Table 4, IC50 class; read-out: hDHODH
PROPERTY: IC50

Check out these entries, answers already filled in.
[[record]]
compound = "Cc1cc(Nc2ccc(C)c(C(F)(F)F)c2)n2ncnc2n1"
measurement = "> 10 µM"

[[record]]
compound = "Cc1cc(Nc2ccc(F)c(C)c2)n2ncnc2n1 [drawing 39]"
measurement = "2 to 10 µM"

[[record]]
compound = "COc1ccc(Nc2cc(C)nc3ncnn23)cc1"
measurement = "> 10 µM"

[[record]]
compound = "Cc1cc(Nc2ccc3c(c2)OCO3)n2ncnc2n1"
measurement = "> 10 µM"


So for "Cc1cc(Nc2ccc(OC(F)(F)F)cc2)n2ncnc2n1" , the logged IC50 turned out to be > 10 µM

So for "Cc1cc(Nc2ccc(Cc3ccccc3)cc2)n2ncnc2n1" , the logged IC50 turned out to be 2 to 10 µM

###

# ASSAY TARGET: PbDHODH (Plasmodium berghei)
# ASSAY NOTES: DHODH enzyme inhibition assay, PbDHODH
# Assay type: biochemical, P. berghei
# EXPERIMENTAL CONDITIONS: Table 4, IC50 class; read-out: PbDHODH
pIC50: −log10 of the molar value.
Attribute: pIC50

[[record]]
smiles_entry = "Cc1cc(Nc2ccc(C)c(C(F)(F)F)c2)n2ncnc2n1"
property = "pIC50"
measurement = "5.00 to 5.70"

[[record]]
smiles_entry = "Cc1ccc(Nc2cc(C)nc3ncnn23)c(F)c1"
property = "pIC50"
measurement = "< 5.00"


So for "Cc1cc(Nc2ccc(Br)c(C(F)(F)F)c2)n2ncnc2n1" , the logged pIC50 turned out to be > 5.70

So for "Cc1cc(Nc2c(F)cc(F)cc2F)n2ncnc2n1" , the logged pIC50 turned out to be < 5.00

So for "Cc1cc(Nc2ccc(OC(F)(F)F)cc2)n2ncnc2n1" , the logged pIC50 turned out to be < 5.00

So for "Cc1cc(Nc2ccc3[nH]c(C(F)(F)F)nc3c2)n2ncnc2n1" , the logged pIC50 turned out to be < 5.00

###

# ASSAY TARGET: PfDHODH (Plasmodium falciparum, UniProt Q08210)
# ASSAY NOTES: biochemical
# EXPERIMENTAL CONDITIONS: Table 4, IC50 class; read-out: PfDHODH
Attribute: IC50

Check out these entries, answers already filled in.
[[record]]
molecule = "Cc1ccc(Nc2cc(C)nc3ncnn23)cc1"
measurement = "2 to 10 µM"

[[record]]
molecule = "Cc1cc(Nc2ccccc2C#N)n2ncnc2n1"
measurement = "> 10 µM"

[[record]]
molecule = "CCCCCCc1ccc(Nc2cc(C)nc3ncnn23)cc1"
measurement = "2 to 10 µM"

[[record]]
molecule = "Cc1cc(Nc2c(F)cc(F)cc2F)n2ncnc2n1"
measurement = "> 10 µM"

[[record]]
molecule = "Cc1ccc(Nc2cc(C)nc3ncnn23)c(F)c1"
measurement = "> 10 µM"

[[record]]
molecule = "Cc1cc(Nc2ccc(C#N)cc2)n2ncnc2n1"
measurement = "2 to 10 µM"

[[record]]
molecule = "Cc1cc(Nc2ccc(C)c(C(F)(F)F)c2)n2ncnc2n1"
measurement = "< 2 µM"

[[record]]
molecule = "Cc1cc(Nc2ccc(C(C)(C)C)cc2)n2ncnc2n1"
measurement = "< 2 µM"


Reading of IC50 for "Cc1cc(Nc2ccccc2F)n2ncnc2n1" with PfDHODH (Plasmodium falciparum, UniProt Q08210): > 10 µM

Reading of IC50 for "Cc1cc(Nc2ccc([N+](=O)[O-])cc2)n2ncnc2n1" with PfDHODH (Plasmodium falciparum, UniProt Q08210): 2 to 10 µM

Reading of IC50 for "Cc1cc(NCCCc2ccccc2)n2ncnc2n1" with PfDHODH (Plasmodium falciparum, UniProt Q08210): > 10 µM

Reading of IC50 for "Cc1cc(Nc2ccccc2C)n2ncnc2n1" with PfDHODH (Plasmodium falciparum, UniProt Q08210): > 10 µM

Reading of IC50 for "CCCc1ccc(Nc2cc(C)nc3ncnn23)cc1" with PfDHODH (Plasmodium falciparum, UniProt Q08210): < 2 µM

Reading of IC50 for "Cc1cc(Nc2ccccc2Cl)n2ncnc2n1" with PfDHODH (Plasmodium falciparum, UniProt Q08210): > 10 µM

Reading of IC50 for "Cc1cc(Nc2ccc(Br)cc2)n2ncnc2n1" with PfDHODH (Plasmodium falciparum, UniProt Q08210): 2 to 10 µM

Reading of IC50 for Cc1cc(Nc2ccc(OC(F)F)cc2)n2ncnc2n1 [drawing 44] with PfDHODH (Plasmodium falciparum, UniProt Q08210): < 2 µM

Reading of IC50 for "Cc1cc(Nc2ccccc2C(F)(F)F)n2ncnc2n1" with PfDHODH (Plasmodium falciparum, UniProt Q08210): > 10 µM

Reading of IC50 for "Cc1cc(Nc2ccc(C)c(F)c2)n2ncnc2n1" with PfDHODH (Plasmodium falciparum, UniProt Q08210): < 2 µM

Reading of IC50 for "Cc1cc(Nc2cccc(F)c2)n2ncnc2n1" with PfDHODH (Plasmodium falciparum, UniProt Q08210): 2 to 10 µM

Origin of the recorded values: patent US9216983B2
